- Test system: M14 melanoma
- ASSAY DETAILS: NCI-60 one-dose screen, 48 h
- EXPERIMENTAL CONDITIONS: 10 µM unless noted
- Protocol: Growth inhibition of the M14 human tumor cell line is measured as a screen for anti-cancer activity. Cells are grown in 96 well plates and exposed to the test compound for 48 hours. Compounds are tested at a single concentration, which is 10^-5 M for most compounds. The reported endpoint is percent growth (GI% or GIPRCNT), where numbers from 0 - 100% represent growth inhibition, and numbers from -100% - 0 represent cell death. For example, a value of 40 represents 60% growth inhibition. […]
About 83,000 compounds went through this panel and 20% of them were active in at least one assay; those are over-represented in the sample as a whole. Calls of active or inactive are those of the source. Rule for the calls: active = growth percent below 10; inactive = the rest.
The reply should name one outcome from active, inactive

{"COMPOUND": "CC1OC(n2c3ccccc3c3c4c(c5c6ccccc6[nH]c5c32)C(=O)N(CCN2CCCC2)C4=O)CC(O)C1O (stereo unspecified)", "TARGET SYSTEM": "M14 melanoma", "QUALITATIVE LABEL": "inactive"}
{"COMPOUND": "O=C(Nc1cccc(-c2ccc(Cl)c(C(F)(F)F)c2)c1)C1CCN(Cc2cccc3cccnc23)CC1", "TARGET SYSTEM": "M14 melanoma", "QUALITATIVE LABEL": "active"}

I would be grateful if you could indicate the recorded call for CCC(C)N(CCNc1cc(OC)cc2cccnc12)CC(C)C (stereo unspecified) . inactive

Hey, just so you know, these numbers are from PubChem BioAssay (NCI).
